# maps each entry to its polymerase ribozyme fitness (log ratio)
B1: TPR t1 (parent)
chain: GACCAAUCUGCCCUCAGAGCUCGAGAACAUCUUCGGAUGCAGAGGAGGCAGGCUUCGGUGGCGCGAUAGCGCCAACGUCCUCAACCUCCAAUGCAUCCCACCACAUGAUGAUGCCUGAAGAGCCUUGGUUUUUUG

- Variants of: B1
- test_method_notes: polymerase ribozyme fitness, log enrichment relative to wild type (log ratio); higher = more active; in vitro selection for triplet polymerase activity
Write the number on its own, no unit after it.

> print(dat)
                variant.code                        reported.property  readout.number
1  U7G A18G C62U G120C U125A  polymerase ribozyme fitness (log ratio)           -2.15
2          C101U A105C C114A  polymerase ribozyme fitness (log ratio)           -6.11
3                  A41U G58C  polymerase ribozyme fitness (log ratio)           -1.16
4           C40A A118U G120U  polymerase ribozyme fitness (log ratio)           -1.37
5                  C34U G93A  polymerase ribozyme fitness (log ratio)           -3.87
6  U9G C56U G65C A105U U109C  polymerase ribozyme fitness (log ratio)           -6.39

response.value for U9G U14C G51A C56U C80A (field: polymerase ribozyme fitness (log ratio)) = -3.92

response.value for C20U G39A C56A G69U C94G (field: polymerase ribozyme fitness (log ratio)) = -1.55

response.value for C4U C8A C12U C79G (field: polymerase ribozyme fitness (log ratio)) = -1.25

response.value for G45U C70U A119U G127A (field: polymerase ribozyme fitness (log ratio)) = -3.74

response.value for G51A U55G A66U U112A (field: polymerase ribozyme fitness (log ratio)) = -6.46

response.value for G10A C53U G61C G122A G127U U129A (field: polymerase ribozyme fitness (log ratio)) = 0.0511

response.value for G39U U106C U129C (field: polymerase ribozyme fitness (log ratio)) = -1.88

response.value for C13A C79G (field: polymerase ribozyme fitness (log ratio)) = -3.47
